Target: recombinant PRL-1 (Homo sapiens)
Construct: 6xHis (N, cleaved yes); made in house; host or cells: E. coli One Shot BL21 Star
Sequence (Q93096 1-173): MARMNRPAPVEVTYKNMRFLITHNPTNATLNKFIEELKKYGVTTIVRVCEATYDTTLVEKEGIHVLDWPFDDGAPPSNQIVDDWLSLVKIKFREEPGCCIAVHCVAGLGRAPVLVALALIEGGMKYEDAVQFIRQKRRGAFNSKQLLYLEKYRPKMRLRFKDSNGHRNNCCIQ
Assay: In vitro phosphatase assay (DiFMUP hydrolysis), PRL-1; note: test concentration or dose not given here
Assay type: biochemical
Conditions: FDA-approved drug screen; activity compared to DMSO
Where a name gives a salt, the structure may show the parent alone.
List of % Phosphatase Activity (compared to DMSO) PRL-1 values.
Your answer is read as %, so omit the unit and give the number.

Consider the reported % Phosphatase Activity (compared to DMSO) PRL-1 for these compounds:
{"compound": "CN(C)c1cc(NC(=O)CNC(C)(C)C)c(O)c2c1C[C@H]1C[C@H]3[C@H](N(C)C)C(O)=C(C(N)=O)C(=O)[C@@]3(O)C(O)=C1C2=O", "u": "%", "measurement": 36}
{"compound": "COc1ccccc1N1CCN(CCCNc2cc(=O)n(C)c(=O)n2C)CC1.Cl [Urapidil HCl]", "u": "%", "measurement": 98}
{"compound": "Cc1nnc(NS(=O)(=O)c2ccc(N)cc2)s1", "u": "%", "measurement": 88}
{"compound": "O=c1ccn([C@@H]2O[C@H](CO)[C@@H](O)[C@H]2O)c(=O)[nH]1", "u": "%", "measurement": 86}
{"compound": "C[C@@H]1CCN(C(=O)CC#N)C[C@@H]1N(C)c1ncnc2[nH]ccc12.O=C(O)CC(O)(CC(=O)O)C(=O)O [Tofacitinib (CP-690550) Citrate]", "u": "%", "measurement": 109}
{"compound": "CN1CC(=O)N2[C@H](c3ccc4c(c3)OCO4)c3[nH]c4ccccc4c3C[C@@H]2C1=O", "u": "%", "measurement": 109}
{"compound": "CN[C@H](CC(C)C)C(=O)N[C@H]1C(=O)N[C@@H](CC(N)=O)C(=O)N[C@H]2C(=O)N[C@H]3C(=O)N[C@H](C(=O)N[C@H](C(=O)O)c4cc(O)cc(O)c4-c4cc3ccc4O)[C@H](O)c3ccc(c(Cl)c3)Oc3cc2cc(c3O[C@@H]2O[C@H](CO)[C@@H](O)[C@H](O)[C@H]2O[C@H]2C[C@](C)(N)[C@H](O)[C@H](C)O2)Oc2ccc(cc2Cl)[C@H]1O [Vancomycin HCl]", "u": "%", "measurement": 99}
{"compound": "CN(C(=O)c1ccc(F)cc1C(F)(F)F)C1CCN(c2nnc(-c3ccnn3C)c3ccccc23)CC1", "u": "%", "measurement": 91}
{"compound": "CC(C(=O)O)c1ccc2c(c1)CC(=O)c1ccccc1S2 (stereo not drawn)", "u": "%", "measurement": 109}
{"compound": "CC(C)OC(=O)[C@H](C)N[P@](=O)(OC[C@H]1O[C@@H](n2ccc(=O)[nH]c2=O)[C@](C)(F)[C@@H]1O)Oc1ccccc1", "u": "%", "measurement": 87}

Inquiry: Missing value: % Phosphatase Activity (compared to DMSO) PRL-1, recombinant PRL-1 (Homo sapiens), entry `Cn1c(=O)cc(N2CCC[C@@H](N)C2)n(Cc2cc(F)ccc2C#N)c1=O` . Fill in?
Reply text: 106

Inquiry: Then this compound: `OC[C@@H](O)[C@@H](O)[C@H](O)[C@@H](O)CO`
Reply text: 105

Inquiry: How about Cc1ccc(C(=O)C(C)CN2CCCCC2)cc1.Cl (stereo not drawn) [Tolperisone HCl] ?
Reply text: 91

Inquiry: Input CC1(C)[C@H](C(=O)O)N2C(=O)C[C@H]2S1(=O)=O [Sulbactam sodium]
Reply text: 111

Inquiry: Also Nc1ccc(S(=O)(=O)NC(=O)c2ccccc2)cc1 [Sulfabenzamide] ?
Reply text: 93

Inquiry: Now consider `CN1CCN(c2nc(C3=C(c4c[nH]c5ccccc45)C(=O)NC3=O)c3ccccc3n2)CC1` .
Reply text: 83

Inquiry: Cool, now CCC(COC(=O)c1cc(OC)c(OC)c(OC)c1)(c1ccccc1)N(C)C (stereo not drawn)
Reply text: 90
